Target under test: CYP2D6 (Homo sapiens (Human))
Sequence (P10635 whole entry): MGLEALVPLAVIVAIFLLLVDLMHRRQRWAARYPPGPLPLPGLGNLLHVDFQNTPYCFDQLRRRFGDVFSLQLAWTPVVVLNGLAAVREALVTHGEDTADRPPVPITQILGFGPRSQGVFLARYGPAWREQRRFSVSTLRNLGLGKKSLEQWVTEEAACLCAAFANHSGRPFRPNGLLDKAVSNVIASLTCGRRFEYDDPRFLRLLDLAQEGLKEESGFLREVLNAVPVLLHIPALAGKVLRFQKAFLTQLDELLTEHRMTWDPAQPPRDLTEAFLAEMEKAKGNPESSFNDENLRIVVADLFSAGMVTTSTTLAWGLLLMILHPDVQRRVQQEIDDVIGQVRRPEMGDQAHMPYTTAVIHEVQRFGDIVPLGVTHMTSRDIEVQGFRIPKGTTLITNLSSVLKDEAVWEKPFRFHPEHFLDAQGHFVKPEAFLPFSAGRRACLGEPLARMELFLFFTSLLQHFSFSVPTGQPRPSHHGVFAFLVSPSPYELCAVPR
Protocol: Direct inhibition test (DI test), CYP 2D6
Format: in vitro ADME
Condition: human liver microsomes 0.2 mg/ml, read-out: Direct inhibition rate (%) 2D6
Measurement kind: inhibition at 20 min

Molecular string	Target under test	inhibition at 20 min
Cc1ccc(-n2nc(C(=O)N3C[C@@H](C)N[C@@H](C)C3)nc2-c2ccc3c(c2)N(C2CCCC2)[C@H](C)C(=O)N3C)cc1	CYP2D6 (Homo sapiens (Human))	4%
Cc1ccc(-n2nc(C(=O)N3C[C@@H](C)N[C@@H](C)C3)cc2-c2ccc3c(c2)N(C2CCCC2)[C@H](C)C(=O)N3C)cc1	CYP2D6 (Homo sapiens (Human))	6%

Reported inhibition at 20 min ( "Cc1ccc(-n2nc(C(=O)N3CCN(C)CC3)cc2-c2ccc3c(c2)N(C2CCCC2)[C@H](C)C(=O)N3C)cc1" ) = 4%
